SYSTEM: Aromatase (Homo sapiens, UniProt P11511)
Sequence (P11511 whole entry): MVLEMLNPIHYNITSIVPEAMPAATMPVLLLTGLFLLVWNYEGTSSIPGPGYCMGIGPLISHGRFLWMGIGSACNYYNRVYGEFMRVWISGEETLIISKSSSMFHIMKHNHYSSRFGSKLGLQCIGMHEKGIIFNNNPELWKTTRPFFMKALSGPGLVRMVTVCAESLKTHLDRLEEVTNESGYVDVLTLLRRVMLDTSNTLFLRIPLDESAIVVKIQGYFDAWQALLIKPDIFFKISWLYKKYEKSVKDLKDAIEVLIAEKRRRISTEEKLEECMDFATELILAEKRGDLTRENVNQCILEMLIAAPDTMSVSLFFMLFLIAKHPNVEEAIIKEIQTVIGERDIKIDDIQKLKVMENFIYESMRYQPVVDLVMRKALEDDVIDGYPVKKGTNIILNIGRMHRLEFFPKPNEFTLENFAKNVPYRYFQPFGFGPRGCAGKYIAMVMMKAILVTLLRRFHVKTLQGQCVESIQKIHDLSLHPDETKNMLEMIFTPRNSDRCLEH
pIC50: −log10 of the molar value.
REPORTED PROPERTY: pIC50

The reported pIC50 value, Aromatase (Homo sapiens, UniProt P11511), for COc1ccc2c(c1)N[C@H]1c3ccc(O)cc3OC[C@@H]21 (racemic) reads < 3.52
